- System: NCI/ADR-RES
- assay.overview: NCI tumour cell line growth inhibition, 48 h
Active and inactive are the calls of the source. No stated cut-off is given here; in the data, active = GI50 up to about 1.1 µM and inactive = higher.
The categories you may choose from are Y for active, N for inactive

Would you please look over these solved cases?
{"compound": "Cc1nn(C(=O)c2ccc(Cl)cc2)c2c1C(/C=C/c1ccccc1)SC(=N)N2 (stereo unspecified)", "classification": "N"}
{"compound": "COc1ccc(OC)c(NC2=NCCO2)c1", "classification": "N"}
{"compound": "CN1C(=O)C23CC4=CC=CC(O)C4N2C(=O)C1(CO)SS3 (stereo unspecified)", "classification": "Y"}
{"compound": "Sc1ncnc2nc[nH]c12 [MERCAPTOPURINE ANHYDROUS]", "classification": "N"}
{"compound": "O=S1(=O)c2ccccc2N2CCCc3cc(Cl)cc1c32", "classification": "N"}

Please look at the following compound next.
IN: // return assay outcome for "Oc1[nH]c(Nc2ccc(F)c(Cl)c2)nc2ncnc1-2"
OUT: N

The measurements presented in this section are drawn from ChEMBL document CHEMBL1201862.
